- targetDesc: glycosylated human PAI-1 (active form) (human, UniProt P05121 24-402, glycosylated)
- Sequence (P05121 24-402 limits assumed): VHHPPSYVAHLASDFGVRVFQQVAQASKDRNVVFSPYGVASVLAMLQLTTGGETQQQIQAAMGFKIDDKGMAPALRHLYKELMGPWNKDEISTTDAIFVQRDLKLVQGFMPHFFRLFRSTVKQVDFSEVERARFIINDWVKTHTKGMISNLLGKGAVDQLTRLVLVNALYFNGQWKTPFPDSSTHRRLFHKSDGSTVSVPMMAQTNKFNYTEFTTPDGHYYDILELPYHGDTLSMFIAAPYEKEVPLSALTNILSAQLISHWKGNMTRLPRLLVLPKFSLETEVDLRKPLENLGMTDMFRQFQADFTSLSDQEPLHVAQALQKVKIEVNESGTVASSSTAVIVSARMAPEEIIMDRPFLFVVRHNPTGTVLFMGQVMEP
- methodSummary: cell-based or functional assay
Assignment: determine reported Plasminogen Activation IC50 for the given binders.
// units = nM; emit number, no label

[in] Supply recorded Plasminogen Activation IC50 for A44-hv14 (antibody, V domains shown, humanized A44, HEK293; constant regions as for A44-hv1; also called LC4 x HC5b; variant 14) VH: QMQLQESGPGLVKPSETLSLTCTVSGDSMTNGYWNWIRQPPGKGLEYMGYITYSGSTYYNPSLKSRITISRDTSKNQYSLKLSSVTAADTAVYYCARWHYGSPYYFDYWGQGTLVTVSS VL: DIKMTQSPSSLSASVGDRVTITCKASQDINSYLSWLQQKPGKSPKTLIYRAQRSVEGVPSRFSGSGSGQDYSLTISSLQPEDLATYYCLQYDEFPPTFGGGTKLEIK here.
[out] 1.82

[in] Give the value of Plasminogen Activation IC50 reported for the following: A44-hv12 (antibody, V domains shown, humanized A44, HEK293; constant regions as for A44-hv1; also called LC4 x HC3; variant 12) VH: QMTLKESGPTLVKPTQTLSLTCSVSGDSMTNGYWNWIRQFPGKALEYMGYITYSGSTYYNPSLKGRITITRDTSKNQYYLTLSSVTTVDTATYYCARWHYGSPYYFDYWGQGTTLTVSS VL: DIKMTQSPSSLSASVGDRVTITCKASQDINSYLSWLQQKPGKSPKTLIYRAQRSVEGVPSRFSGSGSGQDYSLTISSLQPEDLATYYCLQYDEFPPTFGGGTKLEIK
[out] 1.99

Where do the numbers come from? From patent US20160200831A1.
